Source listed as ChEMBL document CHEMBL4513216.

Assay: Toxicity liver stage against HepG2, at 10uM
Assay type: cell-based
Parameters: test concentration 10 uM, cell line HepG2-A16-CD81EGFP
Conditions: human, HepG2-A16-CD81EGFP cells; read-out: INHIBITION

>  <Compound>
CN1CC2(CCN(C(=O)CCCOCc3ccccc3)C2)OC1=O (stereo unspecified)

>  <Unit name>
%

>  <cytotoxicity at 10 µM>
4.49

$$$$
>  <Compound>
CSc1nccc(N2CCN(C)C3(CCNC(=O)CC3)C2)n1 (stereo unspecified)

>  <Unit name>
%

>  <cytotoxicity at 10 µM>
18.7

$$$$
>  <Compound>
CCOc1ccc(S(=O)(=O)C(C)C(=O)Nc2cc(C)no2)cc1 (stereo unspecified)

>  <Unit name>
%

>  <cytotoxicity at 10 µM>
5.07

$$$$
>  <Compound>
CSCCC(=O)N1CCCN(Cc2cnn(C(C)C)c2)CC1

>  <Unit name>
%

>  <cytotoxicity at 10 µM>
-25.3

$$$$
>  <Compound>
CCn1cc(CN2CCCN(C(=O)CCn3cc(C)cn3)CC2)cn1

>  <Unit name>
%

>  <cytotoxicity at 10 µM>
-2.11

$$$$
>  <Compound>
CC(=O)N1CCC[C@@H](NCc2c[nH]c3ccccc23)[C@@H]1c1ccc(C)s1

>  <Unit name>
%

>  <cytotoxicity at 10 µM>
-39

$$$$
>  <Compound>
O=C(NCCN1CCCS1(=O)=O)c1scnc1Cl

>  <Unit name>
%

>  <cytotoxicity at 10 µM>
-3.67

$$$$
>  <Compound>
COc1ccccc1CN1CCC(O)(Cn2ccc3ncccc32)CC1

>  <Unit name>
%

>  <cytotoxicity at 10 µM>
-0.692

$$$$
>  <Compound>
O=C(CCc1ccc(Cl)cc1)N1CCC(O)(C(F)(F)F)C1 (stereo unspecified)

>  <Unit name>
%

>  <cytotoxicity at 10 µM>
1.16

$$$$
>  <Compound>
Cc1cnn(CCNC(C)c2nnc(-c3cccc(Cl)c3)o2)c1 (stereo unspecified)

>  <Unit name>
%

>  <cytotoxicity at 10 µM>
-1.41

$$$$
>  <Compound>
O=S(=O)(C1CC1)N1CCc2ncnc(-c3ccsc3)c2CC1

>  <Unit name>
%

>  <cytotoxicity at 10 µM>
4.8

$$$$
